Attribution: ChEMBL document CHEMBL2040842

ASSAY TEXT: Inhibition of human recombinant AMPD1 deltaM54 mutant expressed in Sf9 cells
Parameter: pIC50. Scope: all listed entries.
Keep in mind that pIC50 stands for -log10 of concentration in molar terms.

Q: Item under review: `O=C(O)c1cc2c(c(CCc3cnc4cncnn34)c1)CCCC2` . Reported pIC50?
Ans: 5.24

Q: Item under review: `O=C(O)c1cccc(CCc2cnc3cncnn23)c1` . Reported pIC50?
Ans: 3.51
